Every entry's value here was drawn from paper PMC4577092.

- Tgt: HuR full length (UniProt Q15717 1-326)
- Sequence (Q15717 whole entry): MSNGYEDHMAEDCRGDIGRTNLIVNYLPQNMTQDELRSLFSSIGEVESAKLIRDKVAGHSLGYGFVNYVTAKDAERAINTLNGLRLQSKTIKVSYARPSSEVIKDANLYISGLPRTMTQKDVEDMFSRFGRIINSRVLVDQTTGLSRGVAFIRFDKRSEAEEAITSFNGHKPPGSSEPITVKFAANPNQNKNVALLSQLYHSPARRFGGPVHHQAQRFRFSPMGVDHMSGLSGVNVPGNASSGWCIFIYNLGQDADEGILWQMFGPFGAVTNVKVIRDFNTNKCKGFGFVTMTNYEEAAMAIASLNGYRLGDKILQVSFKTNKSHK
- Procedure Text: fluorescence polarization; 10 nM RNA; apparent Kd; FP: 50 mM Na phosphate, 100 mM NaCl, 5 mM TCEP, pH 7.0, 384-well plate; temperature not stated; NMR conditions not in material
- Assay Setup: protein: recombinant; (pET14b, metal chelation); label: 5'-FAM; single strand
Property: Kd

Asked: Recorded Kd of AUUUUUAUUUU (ssRNA) [5'-FAM c-Fos 11-mer ARE RNA] , please.
Given back: ~20 nM
